Reported pEC50 is given for each of the following binders.
# Target Of Assay: T1, human CEA protein on the cell surface (human, UniProt P06731 35-685)
# T1 construct: whole, on cells; also called CEACAM-5; CD66e
# T1 sequence (looked up): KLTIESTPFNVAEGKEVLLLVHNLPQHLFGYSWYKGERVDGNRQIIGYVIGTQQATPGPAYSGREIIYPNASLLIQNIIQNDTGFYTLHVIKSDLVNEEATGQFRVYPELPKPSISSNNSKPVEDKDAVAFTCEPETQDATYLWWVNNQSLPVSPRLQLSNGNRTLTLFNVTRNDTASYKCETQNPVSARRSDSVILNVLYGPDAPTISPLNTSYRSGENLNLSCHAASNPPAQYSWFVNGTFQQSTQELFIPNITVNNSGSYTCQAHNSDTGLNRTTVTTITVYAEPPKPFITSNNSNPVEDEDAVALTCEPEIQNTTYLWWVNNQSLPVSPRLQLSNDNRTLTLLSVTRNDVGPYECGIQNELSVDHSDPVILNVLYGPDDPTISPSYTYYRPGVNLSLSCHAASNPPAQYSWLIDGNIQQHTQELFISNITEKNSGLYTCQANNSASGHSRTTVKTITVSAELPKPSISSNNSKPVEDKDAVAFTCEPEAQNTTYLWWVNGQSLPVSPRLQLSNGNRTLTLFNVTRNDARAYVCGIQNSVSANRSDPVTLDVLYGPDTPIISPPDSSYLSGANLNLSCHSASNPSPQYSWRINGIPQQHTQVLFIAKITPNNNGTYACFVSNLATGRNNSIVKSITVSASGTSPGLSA
# Protocol: FACS, MKN45 cells
# Description: In order to detect the binding of the antibody to the CEA protein on the cell surface, the binding activity of the antibody was determined by FACS using cells expressing CEA on the cell surface. Cells were harvested and centrifuged at 400 g at 4° C. for 5 min. […] The plate was analyzed by a flow cytometer (BD, FACSverse) for fluorescence signal values.
Schema: pEC50 number; meaning minus log10 of the concentration expressed in molar units.

Which pEC50 is listed for Hu67-5 (antibody, human IgG1, kappa, V domains shown) VH: EVQLVQSGAEVKKPGASVKVSCKASGYTFTDYHMNWVRQAPGQRLEWMGDINPDIGGTSYNQNFKGRVTITRDTSASTAYMELSSLRSEDTAVYYCARWDFDSFANWGQGTLVTVSS VL: DIVMTQSPSSLSASVGDRVTITCRASESVSIIGTNLIHWYQQKPGKPPKLLIYHASNLETGVPSRFSGSGSGTDFTLTISSLQPEDFATYYCLQSRKIPYTFGGGTKVEIKR ?
8.54

Please give the result for Hu67-1 (antibody, human IgG1, kappa, V domains shown) VH: EVQLVQSGAEVKKPGASVKVSCKASGYTFTDYHMNWVRQAPGQRLEWMGDINPDIGGTSYNQNFKGRVTITRDTSASTAYMELSSLRSEDTAVYYCARWDFDSFANWGQGTLVTVSS VL: DIVMTQSPDSLAVSLGERATINCRASESVSIIGTNLIHWYQQKPGQPPKLLIYHASNLETGVPDRFSGSGSGTDFTLTISSLQAEDVAVYYCLQSRKIPYTFGGGTKVEIKR too.
8.61

Please give the result for Hu67-9 (antibody, human IgG1, kappa, V domains shown) VH: EVQLVQSGAEVKKPGESLKISCKGSGYSFTDYHMNWVRQMPGKGLEWMGDINPDIGGTSYNQNFKGQVTISADKSISTAYLQWSSLKASDTAMYYCARWDFDSFANWGQGTLVTVSS VL: DIQMTQSPSSLSASVGDRVTITCRASESVSIIGTNLIHWYQQKPGKAPKLLIYHASNLETGVPSRFSGSGSGTDFTLTISSLQPEDFATYYCLQSRKIPYTFGGGTKVEIKR too.
8.43
